Each recorded value in this set is attributed to patent US20070117743A1.

test system: LoVo-Dox; assay: SRB colorimetric assay of cell growth and viability, LoVo-Dox; format: cell-based, human; conditions: 48 hours exposure; read-out: LC50 LOVO-DOX
Listing of recorded CC50 by entry.
Numbers only here, please. The scale is nM.

Compound | Quantity unit | CC50
C/C=C1\NC(=O)[C@H](Cc2ccccc2)NC(=O)[C@@H](C(C)C)NC(=O)[C@@H]([C@@H](C)CC)NC(=O)[C@H](NC(=O)[C@H](NC(=O)[C@H](CCCN)NC(=O)[C@H]2CCCN2C(=O)[C@H](NC(=O)[C@@H](NC(=O)[C@@H](NC(=O)[C@H](NC(=O)CCCC(C)C)[C@H](C)O)[C@@H](C)O)C(C)C)C(C)C)[C@@H](C)CC)[C@@H](C)OC(=O)[C@H](C(C)C)NC1=O [Compound 41, [D-Thr^13]-KF] | nM | 509
C/C=C1\NC(=O)[C@H](Cc2ccccc2)NC(=O)[C@@H](C(C)C)NC(=O)[C@@H]([C@@H](C)CC)NC(=O)[C@H](NC(=O)[C@H](NC(=O)[C@H](CCCN)NC(=O)[C@H]2CCCN2C(=O)[C@H](NC(=O)[C@@H](NC(=O)[C@@H](NC(=O)[C@H](NC(=O)Cc2ccc(C(F)(F)F)cc2)C(C)C)[C@@H](C)O)C(C)C)C(C)C)[C@@H](C)CC)[C@@H](C)OC(=O)[C@H](C(C)C)NC1=O [Compound 25, [p-CF3PhAc^14]-KF] | nM | 1430
C/C=C1\NC(=O)[C@H](Cc2ccccc2)NC(=O)[C@@H](C(C)C)NC(=O)[C@@H]([C@@H](C)CC)NC(=O)[C@H](NC(=O)[C@H](NC(=O)[C@H](CCCN)NC(=O)[C@H]2CCCN2C(=O)[C@H](NC(=O)[C@@H](NC(=O)[C@@H](NC(=O)[C@@H](C)NC(=O)CCCC(C)C)[C@@H](C)O)C(C)C)C(C)C)[C@@H](C)CC)[C@@H](C)OC(=O)[C@H](C(C)C)NC1=O [Compound 34, [D-Ala^13]-KF] | nM | 2480

# next compound below
Identify the reported CC50 for the following entry. C/C=C1\NC(=O)[C@H](Cc2ccccc2)NC(=O)[C@@H](C(C)C)NC(=O)[C@@H]([C@@H](C)CC)NC(=O)[C@H](NC(=O)[C@H](NC(=O)[C@H](CCCN)NC(=O)[C@H]2CCCN2C(=O)[C@H](NC(=O)[C@@H](NC(=O)[C@@H](NC(=O)[C@H](NC(=O)CCCCC(C)=O)C(C)C)[C@@H](C)O)C(C)C)C(C)C)[C@@H](C)CC)[C@@H](C)OC(=O)[C@H](C(C)C)NC1=O [Compound 27, [6-OHep^14]-KF]
6700
